Where do these numbers come from? They come from patent US20130129722A1.

Target: Dimeric Mouse Ang-2FD conjugated to human IgG1 (mouse (Mus musculus))
Sequence (chain, as listed by the source limits assumed): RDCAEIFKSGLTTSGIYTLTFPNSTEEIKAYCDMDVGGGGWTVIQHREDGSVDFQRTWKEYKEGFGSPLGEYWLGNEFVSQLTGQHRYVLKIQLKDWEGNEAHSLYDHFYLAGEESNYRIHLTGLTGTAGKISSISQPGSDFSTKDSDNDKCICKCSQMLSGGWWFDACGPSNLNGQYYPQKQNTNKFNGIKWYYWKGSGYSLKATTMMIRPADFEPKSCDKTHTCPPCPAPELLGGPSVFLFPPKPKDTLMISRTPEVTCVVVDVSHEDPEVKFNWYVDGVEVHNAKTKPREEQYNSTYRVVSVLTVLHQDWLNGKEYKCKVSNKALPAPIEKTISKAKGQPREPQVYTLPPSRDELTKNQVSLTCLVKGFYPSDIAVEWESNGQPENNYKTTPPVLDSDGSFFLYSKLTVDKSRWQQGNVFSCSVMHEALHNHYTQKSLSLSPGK
Assay: ELISA, 16.67 nM antibody, Ang-2FD-hFc binding to coated hTie-2-mFc
Below is a list of entries, each paired with its recorded Percent Blocking of Ang-2FD Binding to Tie-2 value.
VALUE TYPE: Percent Blocking of Ang-2FD Binding to Tie-2 (%)

BINDER	RECORDED VALUE
H2M742N (antibody, V domains shown) VH: DVQLLESGGDLVQPGGSLRLSCEASGFTFRNYVMIWVRQAPGKGLEWVSGISNSGGTTHYTDSVKGRFTISRDNSKNTLYLQINSLRAEDTAVYYCAKGYLDTSLIEGNWFDPWGQGTLVTVSS VL: NIVMTQSPLSLPVTPGEPASISCRSSQSLLHSNGFNYLNWFLQKPGQSPQLLIYLGSNRASGVPDKFSGSGSGTDFTLNINRVEAEDVGIYFCMQTLQTPLTFGGGTKVEIK	98.6
H1M732N (antibody, V domains shown) VH: EVQLVESGGGLVRPGGSLRLSCAASGFTFTNAWMSWVRQAPGKGLEWIGQIKSKTDGGTIDYAAPVKGRFTVSRDDSENTLFLQMNSLKTEDTAVYYCAGNWNYVDFDYWGQGTLVTVSS VL: DIQMTQSPSSLSASVGDRVTITCRASQDIRNDLGWYQQKPGKAPKRLIYAASSLQGGVPSRFSGSGSGTEFTLTISSLQPEDFATYYCLQHNSYPFTFGPGTKVDIK	90.9
H2M750N (antibody, V domains shown) VH: QVKLVESGGGVVQPGRSLRVSCAASGFTFSSYGMHWVRQAPGKGLEWLAIIWYDGDNKYYSDSVKGRFTISRDNSKNTLYLQMNSLRAEDTAEYYCVRDASIASRFLDYWGQGTLVTVSS VL: DIQMTQSPSSLSASIGDRVTITCRATQDINNYLAWFQQKPGKAPKSLIYATSNLQSGVPSKFSGSGSGTDYTLTISSLQPEDFSTYYCQQYHSYPLTFGGGTKVEIK	53.7
